property name: melting point (°C)

A selection of reference data follows.
compound	melting point [°C]
O=C(C=Cc1ccccc1)C=Cc1ccccc1	111
O=C1CCC(=O)O1 [succinic anhydride]	120
O=C(Cl)c1c(Cl)cccc1Cl [2,6-dichlorobenzoyl chloride]	17

1 = CC1(C)C(=O)NC(=O)N1CO [1-hydroxymethyl-5,5-dimethylhydantoin]
2 = CS(C)=O [dimethyl sulfoxide]
Compare reported melting point values for 1 and 2 . Which is lower? Identify your selection by its label.
2

###

property name: melting point (°C)

A selection of reference data follows.
molecule	quantitative result
COc1ccc2oc(-c3cc(OC)c(OC)cc3OC)c(O)c(=O)c2c1 [3-hydroxy-2',4',5',6-tetramethoxyflavone]	202
Cn1c(=O)c2c(ncn2CC2OCCO2)n(C)c1=O	144
O=S1(=O)OC(c2cc(Br)c(O)c(Br)c2)(c2cc(Br)c(O)c(Br)c2)c2ccccc21	204

P = CCOc1cc(C)ccc1O
Q = O=S(=O)(Cl)Cc1ccc(F)cc1 [4-fluoro-alpha-toluenesulfonyl chloride]
Compare reported melting point values for P and Q . Which is lower? Identify your selection by its label.
P

###

property name: melting point (°C)

A selection of reference data follows.
molecule	quantitative result
CC(C)(Oc1ccc(Cl)cc1)C(=O)O	120
Oc1ccc(-n2ccnc2)cc1	206
C=C(C)[C@H]1Cc2c(ccc3c2O[C@@H]2COc4cc(OC)c(OC)cc4[C@@H]2C3=O)O1	166
O=C(CCCN1CCC(n2c(=O)[nH]c3ccccc32)CC1)c1ccc(F)cc1	171
Nc1ccc(-c2cccs2)cc1	76
c1ccc(-c2ccc(-c3ccccc3)cc2)cc1	214

A = O=C(O)/C=C/c1ccc(Cl)cc1Cl [trans-2,4-dichlorocinnamic acid]
B = Cc1ccc(C(C)C)cc1O
C = O=S(=O)(Cl)c1cc(Cl)cc(Cl)c1 [3,5-dichlorobenzenesulfonyl chloride]
Ordering criterion: melting point; begin with the maximum. Returns: the labels listed in the requested order.
A, C, B

###

property name: melting point (°C)

A selection of reference data follows.
compound	melting point / °C
O=Cc1ccc(B(O)O)cc1C(F)(F)F	201
CC(=O)C=C(C)[O][Co]([O]C(C)=CC(C)=O)[O]/C(C)=C\C(C)=O [Cobalt(3+) tris[(2Z)-4-oxopent-2-en-2-olate]]	212
O=C(O)c1ccccc1Nc1cccc(C(F)(F)F)c1	134
C[C@H]1C[C@H]2[C@@H]3CCC4=CC(=O)C=C[C@]4(C)[C@@]3(Cl)[C@@H](O)C[C@]2(C)[C@@]1(O)C(=O)CO	118

a = C/C=C/c1ccc(OC)cc1 [trans-anethole]
b = CC(=O)OC1CCC2(C)C(CCC3C2CCC2(C)C3CCC2(O)C#Cc2ccccc2)C1 (stereo not drawn) [17-hydroxy-21-phenylpregn-20-yn-3-yl acetate]
c = COC(OC)OC [trimethyl orthoformate]
d = CCN(CC)CCSC(=O)N(c1ccccc1)c1ccccc1 [phencarbamide]
Put these in order: smallest melting point first, largest last. Returns: the labels listed in the requested order.
c, a, d, b
(c: -53 °C, a: 23 °C, d: 48 °C, b: 166 °C)

###

property name: melting point (°C)

compound	property name	unit descriptor	quantitative result
Cc1cc(C)c(C(=O)O)c(C)c1	melting point	°C	154
Cc1cc(O)c(C)c(=O)o1 [3,6-dimethyl-4-hydroxy-2-pyrone]	melting point	°C	210
c1ccc2c(P(c3cccc4ccccc34)c3cccc4ccccc34)cccc2c1	melting point	°C	267
Fc1c(F)c(F)c(-c2c(F)c(F)c(F)c(F)c2F)c(F)c1F	melting point	°C	68
CC(=O)Nc1ccccc1C1C=c2ccccc2=N1 (stereo not given) [N-[2-(1H-indol-2-yl)phenyl]acetamide]	melting point	°C	152

P = OC[C@H]1O[C@@H](O)[C@H](O)[C@H](O)[C@@H]1O
Q = OCCCCCO
Could you kindly indicate whether P or Q has the higher melting point value? Identify your selection by its label.
P
(P: 145 °C, Q: -16 °C)
